Test system: 695427-040-R-J1-PDC complex spheroids, viability percent T/C;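 also: spheroids exposed to compounds for seven days before readout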
ASSAY: Anticancer human tumor 695427-040-R-J1-PDC patient-derived colon adenocarcinoma cell line growth inhibition [GQUAD]
RECORDED_CONDITIONS: second compound 0.316 µM; first compound 10 µM; hits give low values
Friendly reminder: viability, T/C below 60% is fulfilled, at or above is not fulfilled.

# MOLECULE, GROUP
rows = [
    ("O=C(NO)c1cnc(N2CCN(S(=O)(=O)c3ccc4ccccc4c3)CC2)nc1 + Cc1cnc(CNC(=O)c2c(=O)c3ccc(N4CCCN(C)CC4)nc3n3c2sc2ccccc23)cn1", "fulfilled"),
    ("COc1cc(C2c3cc4c(cc3C(OC3OC5COC(C)OC5C(O)C3O)C3COC(=O)C23)OCO4)cc(OC)c1O (stereo unspecified) + Cc1[nH]c2ccc(F)cc2c1-c1nc2c3cccnc3c3ncccc3c2[nH]1", "not fulfilled"),
]

Exercise: For this molecule, is viability, T/C lower than 60%? C#Cc1c(F)ccc2cc(O)cc(-c3ncc4c(N5CC6CCC(C5)N6)nc(OCC56CCCN5CC(F)C6)nc4c3F)c12 (stereo unspecified) + Cc1cnc(CNC(=O)c2c(=O)c3ccc(N4CCCN(C)CC4)nc3n3c2sc2ccccc23)cn1
Key: fulfilled

Exercise: For this molecule, is viability, T/C lower than 60%? O=C(NO)c1cnc(N2CCN(S(=O)(=O)c3ccc4ccccc4c3)CC2)nc1 + Cc1[nH]c2ccc(F)cc2c1-c1nc2c3cccnc3c3ncccc3c2[nH]1
Key: not fulfilled

Exercise: For this molecule, is viability, T/C lower than 60%? CC(=O)O[C@H]1C(=O)[C@@]2(C)[C@H]([C@H](OC(=O)c3ccccc3)[C@]3(O)C[C@H](OC(=O)[C@H](O)[C@@H](NC(=O)c4ccccc4)c4ccccc4)C(C)=C1C3(C)C)[C@]1(OC(C)=O)CO[C@@H]1C[C@@H]2O + Cc1[nH]c2ccc(F)cc2c1-c1nc2c3cccnc3c3ncccc3c2[nH]1
Key: fulfilled
